Source of measurements: patent US7582627B2

>  <compound>
COc1c(N2CC(C)C(C(C)N)C2)c(F)cc2c(=O)n(N)c(=O)n(C3CC3)c12.Cl (stereo not drawn)

>  <melting point>
204.5 °C

$$$$
>  <compound>
C[C@H](N)[C@@H]1CCN(c2c(F)cc3c(=O)n(N)c(=O)n(C4CC4)c3c2Cl)C1.Cl

>  <melting point>
164 to 166 °C

$$$$
>  <compound>
COc1c(N2CC[C@H]([C@H](C)N)C2)c(F)cc2c(=O)n(N)c(=O)n(C3CC3)c12.Cl

>  <melting point>
221 to 223 °C

$$$$
>  <compound>
COc1c(N2CC[C@H]([C@@H](C)N)C2)c(F)cc2c(=O)n(N)c(=O)n(C3CC3)c12.Cl

>  <melting point>
228 to 230 °C

$$$$
>  <compound>
Cc1c(N2CC[C@H]([C@@H](C)N)C2)c(F)cc2c(=O)n(N)c(=O)n(C3CC3)c12.Cl

>  <melting point>
194 to 196 °C

$$$$
>  <compound>
Cl.N[C@H]1CCN(c2cc3c(cc2F)c(=O)n(N)c(=O)n3C2CC2)C1

>  <melting point>
> 250 °C

$$$$
>  <compound>
Cl.Nn1c(=O)c2cc(F)c(N3CCCC3)c(Cl)c2n(C2CC2)c1=O

>  <melting point>
96 to 98 °C

$$$$
>  <compound>
CCN[C@@H](C)[C@@H]1CCN(c2c(F)cc3c(=O)n(N)c(=O)n(C4CC4)c3c2C)C1.Cl

>  <melting point>
210 to 215 °C

$$$$
>  <compound>
Cc1c(N2CC[C@H]([C@H](C)N)C2)c(F)cc2c(=O)n(N)c(=O)n(C3CC3)c12.Cl

>  <melting point>
192 to 194 °C

$$$$
